Target: Inosine-5'-monophosphate dehydrogenase 1 (Homo sapiens, UniProt P20839)
Sequence (P20839 whole entry): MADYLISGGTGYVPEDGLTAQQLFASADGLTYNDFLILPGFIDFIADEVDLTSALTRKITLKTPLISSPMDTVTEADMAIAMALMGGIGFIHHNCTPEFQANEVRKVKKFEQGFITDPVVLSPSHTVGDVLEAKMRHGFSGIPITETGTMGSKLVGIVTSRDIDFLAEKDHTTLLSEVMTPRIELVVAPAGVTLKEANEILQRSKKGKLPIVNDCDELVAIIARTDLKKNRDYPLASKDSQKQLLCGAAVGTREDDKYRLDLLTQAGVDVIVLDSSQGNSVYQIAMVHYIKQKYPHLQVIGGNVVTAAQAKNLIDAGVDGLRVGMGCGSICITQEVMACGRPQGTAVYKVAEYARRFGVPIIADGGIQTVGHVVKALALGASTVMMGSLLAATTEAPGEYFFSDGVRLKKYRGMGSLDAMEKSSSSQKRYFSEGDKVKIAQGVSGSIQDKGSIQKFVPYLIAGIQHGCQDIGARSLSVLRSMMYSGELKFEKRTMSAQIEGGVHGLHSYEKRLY
Assay metric: Ki (nM)

Guide cases for Ki, answers given:
smiles_notation=COc1c(C)c2c(c(O)c1C/C=C(\C)CCC(=O)NC[C@H]1O[C@@H](n3cnc4c(N)ncnc43)[C@H](O)[C@@H]1O)C(=O)OC2 assay_metric=Ki output_unit=nM number=265
smiles_notation=COc1c(C)c2c(c(O)c1C/C=C(\C)CCC(=O)N[C@H](Cc1c[nH]c3ccccc13)C(=O)NC[C@H]1O[C@@H](n3cnc4c(N)ncnc43)[C@H](O)[C@@H]1O)C(=O)OC2 assay_metric=Ki output_unit=nM number=56
smiles_notation=COC(=O)CNC(=O)CC/C(C)=C/Cc1c(O)c2c(c(C)c1OC)COC2=O assay_metric=Ki output_unit=nM number=522

A. COc1c(C)c2c(c(O)c1C/C=C(\C)CCC(=O)NCC(=O)NC[C@H]1O[C@@H](n3cnc4c(N)ncnc43)[C@H](O)[C@@H]1O)C(=O)OC2
B. COc1c(C)c2c(c(O)c1CCOP(=O)(O)CP(=O)(O)OC[C@H]1O[C@@H](n3cnc4c(N)nc(COCc5ccccc5)nc43)[C@H](O)[C@@H]1O)C(=O)OC2
C. COc1c(C)c2c(c(O)c1CCOP(=O)(O)CP(=O)(O)OC[C@H]1O[C@@H](n3cnc4c(N)cccc43)[C@H](O)[C@@H]1O)C(=O)OC2
Q. List these items ordered by Ki, big to small. // ordering of labels required in reply
A. C, A, B
